System: K4 kissing-loop RNA reporter
Test: apparent KD of K4 kissing-loop reporter; higher = weaker reporter binding
Details: Eterna round: R107; input ligand: arginine 13.2 mM
Below, each entry is listed with its recorded apparent KD of K4 kissing-loop reporter.
State just the number; it will be interpreted in µM.

# ORDERED_RESIDUES, TARGET_ENTITY, UNITS_LABEL, VALUE_MEASURED
data = [
    ("GGACGCCGGUCGGCCGCCACUCACAGCAGUGAUGUUCCUGAGAAUGUAGCGGAGUGAUGUUCCGAGAGGACCGGGACUGCAGUUU [Same State Tryptophan B GF 8]", "K4 kissing-loop RNA reporter", "µM", 0.644),
    ("UAUUCUGUUCGAAAGAACGGAAUUUCGGAAGGAGCGAGAGAAAUCUCAGGUAGGUCGCCGAAAUUAUUAGAUAGUGAUGUUAUCU [Arginine A K4 4]", "K4 kissing-loop RNA reporter", "µM", 0.11),
    ("UUUUUUUACUGAAGGAGCGGCAAUUGAUACGUAGAUAUAGUGAUGUUAUAUAAGAUAGAGAGCCAGGUAGGUCGCAGAUUUUUUU [ExArgB.W]", "K4 kissing-loop RNA reporter", "µM", 0.171),
    ("GUCUGCUGUAUCGAUACCAGAAGUGGGCAGUGAUGUUGUUCGGGUACAUCGCGUCUCGAGUUCCCUUGGCAGCGAUUGUACGAAU [theeternabot_exclusion_KL_Theo_B_12]", "K4 kissing-loop RNA reporter", "µM", 0.571),
]

Let's switch to this sequence now.
What the record says about `GGCACUUUUGCUUGGAACCGUCAAGCUCGAUAGGAUAUGCCGAAAGGCAGAAGGAUUGACCUACAGAGUGAUGUUCUGCGUGCCU` : apparent KD of K4 kissing-loop reporter is 0.378

----------
Test system: MS2 coat protein
Test: apparent KD of MS2 coat protein; designed switch direction (-1 OFF switch, 1 ON switch): 1; higher = weaker reporter binding
Conditions: input ligand: none
Below, each entry is listed with its recorded apparent KD of MS2 coat protein.
Give a bare numeral; the unit nM is implied.

# ORDERED_RESIDUES, TARGET_ENTITY, apparent KD of MS2 coat protein, nM
measured = [
    ("AUUCGUUUGAUAGGAUAUCACUUUACAUGAGGAUCACCCAUGUUCACCACGCUGGUUUCUUAUACUGAGAAGGAUCUUGAUGAC [JR_SSNG2_Sub010] (Eterna round: R96, puzzle: Same State NG 2)", "MS2 coat protein", 31.3),
    ("UUUAGCGUUACAGGAUAUGGUGAGGAUUACCCACUAGAAGGGUAAACAUGUGCGUCGGACAUGAGGAUCACCCAUGUAGGGCGU (Eterna round: R96, puzzle: Same State NG 1)", "MS2 coat protein", 32.4),
]

Entry GGAGCCAAGGCAGGAUAUUCAUAUUAACAACAUGAGGAUCACCCAUGUAAGGCCAGAAGGCCUUGGGAGAAGGGCCAUGGCUCG [Xeonanis - 13 mod4] (Eterna round: R96, puzzle: Same State NG 2) — recorded apparent KD of MS2 coat protein = 187

----------
Tested on: K4 kissing-loop RNA reporter;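 also: bound reporter read as fluorescence of individual clusters on recovered sequencing chips by microscopy, with normalized cluster intensities fitted with a binding model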
Assay: apparent KD of K4 kissing-loop reporter; higher = weaker reporter binding
Settings: Eterna round: R107; input ligand: none
# label = Y if apparent KD of K4 kissing-loop reporter >= 300 nM else N

Examples with answers:
# ORDERED_RESIDUES, CAT
measured = [
    ("UGAUAGGACAGAAGGAGCGGAGCUGGUCAAAGACCAGCAAUACGUUGAAAAGGAGUGAUGUUCCAGGUAGGUCGCUGUCCUAUCU [ArgBX 27 #SwitchBubble #StaticStem]", "N"),
    ("ACUGAGCAUGCGGCCGCCACUUCAGAACGUCGCCCAAAGGGCGACGCCUCCAGAGUGAUGUUCUGGAGGACCGGGCAUGUUCAGA [Omei KL Tryp B Exc A v1]", "Y"),
    ("GGACGCCGGUCGGCCGCCACUCACAGCAGUGAUGUUCCUGAGAAUGUAGCGGAGUGAUGUUCCGAGAGGACCGGGACUGCAGUUU [Same State Tryptophan B GF 8]", "Y"),
]

Is apparent KD of K4 kissing-loop reporter at least 300 nM? Consider AGUGCUAUGACGGCCGCCACUGAUUACCAGUGAUGUUGGUAGUCCAUUUACGACUUCCUGAUAACCAGGACCGGGUCAUAGGUCG [Tryp B Ex t2]
Y

# check: apparent KD of K4 kissing-loop reporter of AUUCGUUUUUGUGAUACCAGACAUGUGAGUGAUGUUUACAUAUAUAUUUAAUAUUUAGCUGUCCCUUGGCAGCACUGUUUAUUUA [JR_ExcTheophyB_Sub003] is greater than or equal to 300 nM
Y

apparent KD of K4 kissing-loop reporter >= 300 nM for UUAUCAUCAGCGGCCGCCACUGCAAAUUGGAGUGAUGUUCCAAGCGUGGAUAAUGAAAUCACUAGUAGGACCGGGUUGAUGAAUU [AK 1 Ex Trypt B] ?
N

Would you say UGGAGUUGACGAAAAGUCAACUCCUGAGAUACCAGUGACGAAAGUCACCCUUGGCAGCUCACUGCCAGUGAUGUUGGUUCAUAAG [#03 K4 Theophylline A Same State] shows apparent KD of K4 kissing-loop reporter at minimum 300 nM?
N

# check: apparent KD of K4 kissing-loop reporter of CUUAUGGCGUUUGGAAGGAGCGGCUCAUCACGAGGACCGGUACGGCCGCCACUCGAGAGAGCAUAAGAAAGUGAUGUUUUCGGUU [theeternabot_sameState_KL_Trp_A_44] is greater than or equal to 300 nM
Y
